B1: glmS ribozyme (parent)
chain: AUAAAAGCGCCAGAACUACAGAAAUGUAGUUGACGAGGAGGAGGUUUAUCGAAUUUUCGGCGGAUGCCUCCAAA

Variants of: B1
Test: KM; higher = weaker cofactor use; RNA array
Conditions: with glucosamine-6-phosphate
# log10 KM per entry
Response schema: value (number) is log10 of KM in units of µM.

- MUTATION ANNOTATION: "U46C C71A"
  log10 KM: 2.91
- MUTATION ANNOTATION: "U55G"
  log10 KM: 3.38
- MUTATION ANNOTATION: "A12G A39G"
  log10 KM: 3.70
- MUTATION ANNOTATION: "C16A U46A"
  log10 KM: 2.74
- MUTATION ANNOTATION: "U30A A53U"
  log10 KM: 3.27
- MUTATION ANNOTATION: "A14C U57C"
  log10 KM: 3.14

Output measured log10 KM for this item: C16U C70A
2.47

Consider the variant A64G and give its recorded log10 KM.
3.32

Dear colleague, please send me the reported log10 KM for C11A C16U when you can.
3.05

// data source = the supplement of paper PMC7125110
